src = PubChem BioAssay (NCATS)

Assay: Viability qHTS for spleen associated tyrosine kinase inhibitor (SYKi) naive MV4-11 cells (AID 1963823); note: nearly all actives have a fitted effect of over 40% in size
Conditions: MV4-11 AML viability, CellTiter-Glo luminescence, 72 h; series mostly up to 45 µM
Inconclusive results are not listed. The source made the active and inactive calls. Calls come from the whole dose curve; as a rule, active = well fitted cell-killing curve with a large enough effect; inconclusive = small, poorly fitted or top-dose-only effect, or effect the other way; inactive = no such curve, though single readings can be large or run the other way.
Pick one: active, inactive

Q: Query: recorded result category for `CCOC(=O)OCC/C(SC(=O)OCC)=C(\C)N(C=O)Cc1cnc(C)nc1N` in this test
A: inactive

Q: // query: Cc1c(F)c(N2CCNC(C)C2)cc2c1c(=O)c(C(=O)O)cn2C1CC1 (centres undefined)
A: inactive

Q: Now try `CCCOc1ccc2nc(NC(=O)OC)[nH]c2c1` .
A: active

Q: Try `CC[C@H]1OC(=O)[C@H](C)[C@@H](O[C@H]2C[C@@](C)(OC)[C@@H](O)[C@H](C)O2)[C@H](C)[C@@H](O[C@@H]2O[C@H](C)C[C@H](N(C)C)[C@H]2O)[C@](C)(O)C[C@@H](C)/C(=N/OCOCCOC)[C@H](C)[C@@H](O)[C@]1(C)O` next.
A: inactive

Q: Can you check `COc1ccc(-c2cnc(-c3cccc4c3-c3ccccc3C4=O)o2)cc1` next?
A: active

Q: Same for CC1=C2CC3C(CCC3(C)O)C(C)(O)CC2OC1=O (centres undefined)
A: inactive

Q: Would you mind doing `CC(C)c1noc(C2CCN(c3ncnc(Nc4ccc(S(C)(=O)=O)cc4F)c3[N+](=O)[O-])CC2)n1` as well?
A: inactive

Q: Follow-up entry: `COc1cc(C(=O)NCCCCCC(=O)O)cc(OC)c1OC`
A: inactive

Q: Next compound: CC(=O)/C=C/C1(O)C(C)CC(O[C@@H]2O[C@H](CO)[C@@H](O)[C@H](O)[C@H]2O)CC1(C)C (some centres undefined)
A: inactive

Q: And for CC(C)(O)/C=C/CC(C)(O)C1C(O)CC2(C)C3CCC4C(C)(C)C(=O)CCC4(C)C3CCC12C (centres undefined) ?
A: inactive

Q: Try the compound `COc1cc([C@@H]2c3cc4c(cc3[C@@H](O[C@@H]3O[C@@H]5CO[C@@H](c6cccs6)O[C@H]5[C@H](O)[C@H]3O)[C@H]3COC(=O)[C@H]23)OCO4)cc(OC)c1O`
A: active

Q: Would you kindly repeat that for `O=C(O)/C=C/c1ccc2occc2c1O[C@@H]1O[C@H](CO)[C@@H](O)[C@H](O)[C@H]1O` ?
A: inactive

Q: What would you report for `CN(C)C/C=C/C(=O)Nc1cccc(C(=O)Nc2cccc(Nc3ncc(Cl)c(-c4c[nH]c5ccccc45)n3)c2)c1` ?
A: inactive

Q: Repeat with C[C@H](NC(CCc1ccccc1)C(=O)O)C(=O)N1CCC[C@H]1C(=O)O (some centres undefined)
A: inactive

----------
Test: Cellular viability qHTS for adrenocortical cancer (ACC) cell line NCI-H295R (AID 1963990); note: nearly all actives have a fitted effect of over 60% in size
Conditions: CellTiter-Glo ATP luminescence, 48 h; series mostly up to 46.1 µM
Text: PI: Naris Nilubol, MD Surgical Oncology Program, National Cancer Institute (NCI) National Institute of Health (NIH), Bethesda, Maryland Adrenocortical cancer (ACC) is a rare malignancy with poor survival outcomes and few treatment options. Currently, mitotane is the only FDA-approved therapy for ACC. […] Through a quantitative high-throughput drug screen (qHTS), we identified auranofin (AF), a thioredoxin reductase (TXNRD) inhibitor, as a promising candidate drug. […]
Results filed as inconclusive are left out. The source made the active and inactive calls. Calls follow the shape of the dose curve; as a rule, active = well fitted cell-killing curve with a large enough effect; inconclusive = small, poorly fitted or top-dose-only effect; inactive = flat fitted curve, though single readings scatter.
Answer with one of the outcomes given here: active, inactive

Q: GET /call?item= `NC(=O)N/N=C/c1ccc([N+](=O)[O-])o1` returns the recorded outcome of this test.
A: active

Q: Follow-up entry: `C[C@]12CC[C@@H]3c4ccc(O)cc4CC[C@H]3[C@@H]1CCC2=O`
A: inactive

Q: Further, for COc1cc2c(cc1OC)C1CC(=O)C(CC(C)C)CN1CC2 (stereo not given) ?
A: inactive

Q: Next compound: `COc1ccc(-c2ccc3c(N4CCOC[C@@H]4C)nc(N4CCOC[C@@H]4C)nc3n2)cc1CO`
A: active

Q: Would you kindly repeat that for CC(CNC1CCCCC1)OC(=O)c1ccccc1 (stereo not given) ?
A: inactive

Q: Next record, please: `Cn1cc(-c2ccc3nnc(Sc4ccc5ncccc5c4)n3n2)cn1`
A: inactive

Q: Cool, now `COc1ccc(-n2c(C)c([N+](=O)[O-])c3ccc(O)cc32)cc1`
A: inactive

Q: Could you do the same for CCC(c1ccc(O)cc1)C(CC)c1ccc(O)cc1 (stereo not given) , please?
A: active

Q: Do the same for `CC(=O)OC[C@@H]1O[C@@H](n2ccc(=O)[nH]c2=O)[C@H](OC(C)=O)[C@H]1OC(C)=O` please
A: inactive

Q: // query: `Cc1nnc(C[C@@H]2C=C(c3ccc(Cl)cc3)c3ccccc3-n3c(C)nnc32)o1`
A: active

Q: Here is the next compound: `CC(=O)CCC(=O)O`
A: inactive

Q: Request: `O=NN(CCCl)C(=O)NCCCl`
A: inactive

Q: Here is the next compound: `O=C(O)Cc1ccccc1Oc1ccc(Cl)cc1Cl`
A: inactive

Q: Continue with Cc1ccc(Cl)c(OCC(O)CNC(C)(C)C)c1 (stereo not given)
A: inactive

Q: // query: `NC(CO)(CO)CCc1ccc(Sc2cccc(OCc3ccccc3)c2)cc1Cl`
A: active

----------
Assay: Viability qHTS for spleen associated tyrosine kinase inhibitor (SYKi) drug resistant MV4-11 cells (AID 1963824); note: nearly all actives have a fitted effect of over 35% in size
Conditions: SYKi-resistant MV4-11 viability, CellTiter-Glo, 72 h; series mostly up to 45 µM
Inconclusive results are not listed. Calls of active or inactive are those of the source. Calls follow the shape of the dose curve; as a rule, active = well fitted cell-killing curve with a large enough effect; inconclusive = small, poorly fitted or top-dose-only effect, or effect the other way; inactive = no such curve, though single readings can be large or run the other way.
// allowed return values: YES for active, NO for inactive

Q: So what was the verdict on `COc1cnc(-n2cnc(C)n2)c2[nH]cc(C(=O)C(=O)N3CCN(C(=O)c4ccccc4)CC3)c12` in this test?
A: NO

Q: Here is the next compound: `NC(=NCCCCCCN=C(N)N=C(N)Nc1ccc(Cl)cc1)N=C(N)Nc1ccc(Cl)cc1`
A: YES

Q: What about this compound? `CN1CCC[C@@H]1CCO[C@](C)(c1ccccc1)c1ccc(Cl)cc1`
A: YES

Q: Consider next the compound C=CCN(/C=C1\C(=O)OC(COC)C2(C)C1=C(O)C(=O)C1=C2C(OC(C)=O)CC2(C)C(=O)CCC12)CC=C (configuration not stated) in the same way.
A: YES

Q: Proceed to CC12CCC(OC3OC(CO)C(O)C(OC4OC(CO)C(O)C(O)C4O)C3O)CC1CCC1C2CCC2(C)/C(=C3/COC(=O)C3)CCC12O (configuration not stated)
A: NO

Q: Continue with `CN1CC(=O)NC1=N`
A: NO

Q: Query COc1cc2c(cc1OC)C(C(C(=O)N(CCc1ccc(OC)c(OC)c1OC)CCc1ccc(OC)c(OC)c1OC)c1ccccc1)=NCC2 (configuration not stated) next
A: YES

Q: Now try `CNCc1cc(-c2ccccc2F)n(S(=O)(=O)c2cccnc2)c1` .
A: YES

Q: Item: `COc1cc(OC2CCN(C)CC2)ccc1Nc1ncc2c(n1)n(C1CCCC1)c(=O)n2C`
A: YES

Q: Now try `OC[C@H]1O[C@@H](O[C@H]2[C@H](OCCc3ccccc3)O[C@H](CO)[C@@H](O)[C@@H]2O)[C@H](O)[C@@H](O)[C@@H]1O` .
A: NO

Q: Now consider CCCCCCCCCCC(O)C1C=CC2C(=O)N(c3ccccc3)C(=O)C2N1Nc1ccc([N+](=O)[O-])cc1 (configuration not stated) and answer again.
A: YES

Q: Could you do the same for `C[C@@H]1CC[C@H]2C(C)(C)[C@H](O)[C@H](O)C[C@]2(C)[C@@]12Cc1c(O)cc3c(c1O2)CNC3=O` , please?
A: NO

Q: Same question for `Cc1ccc(S(=O)(=O)N[C@@H](Cc2ccccc2)C(=O)CCl)cc1` please.
A: YES

Q: Please answer likewise for CCCCC(CC)COC(=O)c1ccccc1O (configuration not stated)
A: YES

Q: Now consider `CC(=O)[C@H]1CC[C@H]2[C@@H]3C[C@H](C)C4=CC(=O)CC[C@]4(C)[C@H]3[C@@H](O)C[C@]12C` and answer again.
A: YES

Q: # repeat for `CC(C)c1ccc(CO)cc1O[C@@H]1O[C@H](CO)[C@@H](O)[C@H](O)[C@H]1O`
A: NO

Q: And `CCN1CCN(Cc2ccc(-c3cc4c(N[C@H](C)c5ccccc5)ncnc4[nH]3)cc2)CC1` ?
A: YES

----------
Assay: Quantitative highthroughput screen to assess conditional lethalithy of NOMO1 cells grown in RPMI1640 with untreated serum (RPMI+s) (AID 1963876); note: nearly all actives have a fitted effect of over 35% in size
Conditions: NOMO1 AML cells in RPMI+serum, CellTiter-Glo viability, 48 h; series mostly up to 45.8 µM
Inconclusive results are not listed. Calls of active or inactive are those of the source. The call rests on the fitted dose curve; in most records, active means well fitted cell-killing curve with a large enough effect; inconclusive means small, poorly fitted or top-dose-only effect; inactive means flat fitted curve, though single readings scatter.
Pick one and only one: active, inactive

Q: Which outcome was assigned to COc1ccccc1OCC(O)COC(N)=O (stereo unspecified) in this test?
A: inactive

Q: Further, for `O=P(O)(O)C(O)(Cn1ccnc1)P(=O)(O)O` ?
A: inactive

Q: Thanks! And `N=C(N=C(N)N)N1CCOCC1` ?
A: inactive

Q: Now the same for `CCn1nnc2c(N3CCOCC3)nc(-c3ccc(NC(=O)Nc4ccc(C(=O)N5CCN(C)CC5)cc4)cc3)nc21`
A: inactive

Q: Also, `O=c1[nH]c(=O)n([C@H]2C[C@@H](O)[C@@H](CO)O2)cc1C=CBr` please.
A: inactive

Q: Another molecule: `CC1(C)CCC[C@@]2(C)[C@@H]1CC[C@@]1(C)OC(=O)C[C@H]21`
A: inactive

Q: What about this molecule? CCC(C)SSc1ncc[nH]1 (stereo unspecified)
A: active

Q: And for `CCN1CCN(CC(=O)Nc2ccc(-c3cccc4c(=O)cc(N5CCOCC5)oc34)c3sc4ccccc4c23)CC1` ?
A: active

Q: Next molecule: `Cn1cc(-c2cnn3c(N)c(Br)c([C@H]4CCCNC4)nc23)cn1`
A: active

Q: Param item: Clc1ccc(C(Cn2ccnc2)OCc2c(Cl)cccc2Cl)c(Cl)c1 (stereo unspecified)
A: inactive

Q: Ok, now `CC[C@H](NC(=O)[C@H](C)NC)C(=O)N1C[C@@H](O)C[C@H]1Cc1c(-c2[nH]c3cc(F)ccc3c2C[C@H]2C[C@H](O)CN2C(=O)[C@H](CC)NC(=O)[C@H](C)NC)[nH]c2cc(F)ccc12`
A: active

Q: Entry `CC(C)(C)OC(=O)Nc1ccc(-c2cc(C(=O)NCCCCCCC(=O)NO)no2)cc1` please
A: active

Q: Another molecule to check: `CC(C)c1cc(C(C)C)c(CC(=O)NS(=O)(=O)Oc2c(C(C)C)cccc2C(C)C)c(C(C)C)c1`
A: inactive

Q: What do you have for `CN1CCC(COc2cnc(-c3cccc(Cn4nc(-c5cccc(C#N)c5)ccc4=O)c3)nc2)CC1` ?
A: inactive

Q: Same question for `CO[C@H]1C(=O)[C@]2(C)[C@@H](OC)C[C@H]3OC[C@@]3(OC(C)=O)[C@H]2[C@H](OC(=O)c2ccccc2)[C@]2(O)C[C@H](OC(=O)[C@H](O)[C@@H](NC(=O)OC(C)(C)C)c3ccccc3)C(C)=C1C2(C)C` please.
A: active

Q: Now give it for `Cn1cc(-c2ccncc2)c(-c2ccc(OCc3ccc4ccccc4n3)cc2)n1` too.
A: inactive

Q: `Cc1ccc(C(=O)Nc2ccc(Oc3cc4cnn(C)c4cc3-c3cn[nH]c3)c(F)c2)c(=O)n1-c1ccc(F)cc1` , same question.
A: active

Q: Would you mind doing `O=C(O)c1cccnc1Nc1cccc(C(F)(F)F)c1` as well?
A: inactive

Q: Lookup `O=C(O)CCCc1c[nH]c2ccccc12`
A: inactive

Q: Repeat for the following molecule: `C[C@H](Cn1cnc2c(N)ncnc21)OCP(=O)(O)O`
A: inactive

Q: Follow-up item: `CO[C@H]1C[C@@H]2CC[C@@H](C)[C@@](O)(O2)C(=O)C(=O)N2CCCC[C@@H]2C(=O)O[C@H]([C@@H](C)C[C@@H]2CC[C@H](O)[C@H](OC)C2)CC(=O)[C@H](C)C=C(C)[C@@H](O)[C@@H](OC)C(=O)[C@H](C)C[C@H](C)C=CC=CC=C1C`
A: inactive
